target: KasA (Mycobacterium tuberculosis, UniProt P9WQD9); assay: Microscale thermophoresis (MST) binding assay; conditions: read-out: EC50 (KasA interaction)
Sequence (P9WQD9 whole entry): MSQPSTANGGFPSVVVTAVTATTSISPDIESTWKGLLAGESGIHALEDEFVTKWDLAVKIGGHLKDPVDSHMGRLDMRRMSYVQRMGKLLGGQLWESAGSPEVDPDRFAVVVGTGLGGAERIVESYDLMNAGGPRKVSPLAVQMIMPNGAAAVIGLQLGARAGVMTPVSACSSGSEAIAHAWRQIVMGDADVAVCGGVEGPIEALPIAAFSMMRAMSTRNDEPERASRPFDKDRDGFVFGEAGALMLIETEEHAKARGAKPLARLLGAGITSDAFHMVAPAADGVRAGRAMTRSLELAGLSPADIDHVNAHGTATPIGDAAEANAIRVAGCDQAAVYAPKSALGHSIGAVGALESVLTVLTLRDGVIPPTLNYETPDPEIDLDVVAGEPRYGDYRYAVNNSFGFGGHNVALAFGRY
So I've got a bunch of compounds here, and I need their pEC50 values.
One number for each entry, as −log10 of the molar value.

Data request: # query: pEC50 of entry CCCCS(=O)(=O)Nc1ccc2cn[nH]c2c1 [Example 1, N-(1H-indazol-6-yl)butane-1-sulfonamide]
Data returned: 5.76

Pending compound:
Data request: # query: pEC50 of entry CCCCS(=O)(=O)Nc1ccc2cnn(C)c2c1
Data returned: 6.88

----------
experiment: Caco-2 permeability; conditions: human
Property Name: Papp B→A (×10⁻⁶ cm/s)
Numbers only, in ×10⁻⁶ cm/s.

Data request: # query: Papp B→A of entry CCCCS(=O)(=O)Nc1ccc2cnn(C)c2c1
Data returned: 45.6

----------
biological target: UniProt P9WQD9
Property Name: Kd (µM)
Give bare numbers, in µM.

Data request: # query: Kd of entry CCCCS(=O)(=O)Nc1ccc2[nH]nc(C)c2c1 [Example 41]
Data returned: 0.0465
